- System tested: androgen receptor (AR) splicing variant AR-v7 (Homo sapiens)
- Construct: The degradation activity of compounds on AR-v7 in 22RV1 cells; host or cells: 22RV1 cells
- Sequence (P10275 1-644 isoform P10275-3): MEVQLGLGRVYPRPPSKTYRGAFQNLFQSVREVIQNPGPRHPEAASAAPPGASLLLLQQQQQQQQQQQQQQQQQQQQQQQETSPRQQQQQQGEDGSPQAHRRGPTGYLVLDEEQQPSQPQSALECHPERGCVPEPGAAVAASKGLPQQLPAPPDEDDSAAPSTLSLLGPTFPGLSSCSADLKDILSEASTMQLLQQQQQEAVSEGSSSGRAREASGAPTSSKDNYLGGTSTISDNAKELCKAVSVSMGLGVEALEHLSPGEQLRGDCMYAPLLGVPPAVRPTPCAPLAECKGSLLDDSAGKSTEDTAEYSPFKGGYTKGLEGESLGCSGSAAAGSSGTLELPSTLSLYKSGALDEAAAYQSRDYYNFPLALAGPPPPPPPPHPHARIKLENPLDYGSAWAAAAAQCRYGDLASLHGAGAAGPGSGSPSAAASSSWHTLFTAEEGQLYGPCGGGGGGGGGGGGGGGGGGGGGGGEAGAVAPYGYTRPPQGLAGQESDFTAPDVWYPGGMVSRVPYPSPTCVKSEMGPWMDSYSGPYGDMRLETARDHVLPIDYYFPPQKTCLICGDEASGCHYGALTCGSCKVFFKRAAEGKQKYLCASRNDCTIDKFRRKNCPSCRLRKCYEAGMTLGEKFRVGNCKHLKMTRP
- Experiment: Degradation activity on androgen receptor splicing variant AR-v7 in 22RV1 cells (ELISA)
- Assay type: cell-based
- Condition details: AR-v7 degradation in 22RV1 cells, 48 h, class symbols
Quantity: DC50

Query string: Write down DC50 measured for item CC(C)(c1ccc(OCc2ccc(F)c(-n3ccnn3)n2)cc1)c1ccc(O[C@H]2C[C@H](Nc3ccc4c(c3)C(=O)N(C3CCC(=O)NC3=O)C4=O)C2)cc1 (some centres unmarked) [Example 286]
Result string: 11 to 100 nM

Could you tell me DC50 for each of these compounds? They are listed below.
1. C[C@@H]1CN(c2nccc(COc3ccc(C(C)(C)c4ccc(O[C@H]5C[C@@H](Nc6ccc7c(c6)C(=O)N(C6CCC(=O)NC6=O)C7=O)C5)cc4)cc3)n2)[C@H](C)CN1 (some centres unmarked) [Example 408]
2. Cc1nnc(-c2ncc(F)cc2Oc2ccc(C(C)(C)c3ccc(O[C@H]4C[C@H](Nc5ccc6c(c5)C(=O)N(C5CCC(=O)NC5=O)C6=O)C4)cc3)cc2)o1 (some centres unmarked) [Example 95]
3. CC(C)(c1ccc(Oc2ccnc(-n3nccn3)n2)cc1)c1ccc(O[C@H]2C[C@H](Nc3ccc4c(c3)C(=O)N(C3CCC(=O)NC3=O)C4=O)C2)cc1 (some centres unmarked) [Example 469]
4. CC(=O)c1ncc(Oc2ccc(C3(c4ccc(O[C@H]5C[C@H](Nc6ccc7c(c6)C(=O)N(C6CCC(=O)NC6=O)C7=O)C5)cc4)CC3)cc2)cn1 (some centres unmarked) [Example 378]

Result string:
["11 to 100 nM", "< 10 nM", "11 to 100 nM", "11 to 100 nM"]

* * *

- System tested: androgen receptor (AR) splicing variant AR-v7 (Homo sapiens)
- Construct: The degradation activity of compounds on AR-v7 in 22RV1 cells; host or cells: 22RV1 cells
- Experiment: Degradation activity on androgen receptor splicing variant AR-v7 in 22RV1 cells (ELISA)
- Type: cell-based
- Condition details: AR-v7 degradation in 22RV1 cells, 48 h, class symbols
Please respond with reported DC50 for every item in the list.

Some entries whose results are on file:
Query string: Report measured DC50; entry is Cc1noc(-c2cccc(COc3ccc(C(C)(C)c4ccc(O[C@H]5C[C@H](Nc6ccc7c(c6)C(=O)N(C6CCC(=O)NC6=O)C7=O)C5)cc4)cc3)n2)n1 (some centres unmarked)
Result string: 11 to 100 nM

Query string: Tell me its DC50 given Cc1nnc(-c2ccc(Oc3ccc(C(C)(C)c4ccc(O[C@H]5C[C@H](Nc6ccc7c(c6)C(=O)N(C6CCC(=O)NC6=O)C7=O)C5)cc4)cc3)cc2)o1 (some centres unmarked) as the entry.
Result string: < 10 nM

Query string: Consider the compound CC(C)(c1ccc(OCc2ccnc(N3CC4(COC4)C3)n2)cc1)c1ccc(N2CC(CNc3ccc4c(c3)C(=O)N(C3CCC(=O)NC3=O)C4=O)C2)cc1 (centres unmarked) . State its measured DC50.
Result string: 101 to 1000 nM

Query string: Tell me its DC50 given CC(=O)c1nccc(COc2ccc(C(C)(C)c3ccc(OCCCNc4ccc5c(c4)C(=O)N(C4CCC(=O)NC4=O)C5=O)cc3)cc2)n1 (centres unmarked) as the entry.
Result string: 11 to 100 nM

Need DC50 for each of these compounds.
1. CC(C)(c1ccc(OCc2ccnc(N3CC4(COC4)C3)n2)cc1)c1ccc(OC2CCC[C@@H](Nc3ccc4c(c3)C(=O)N(C3CCC(=O)NC3=O)C4=O)C2)cc1 (stereo in doubt)
2. CC(C)(c1ccc(OCCCNc2cccc3c2C(=O)N(C2CCC(=O)NC2=O)C3=O)cc1)c1ccc(OCc2ccnc(N3CCCCC3)n2)cc1 (centres unmarked)
3. Cc1nc(-c2cnc(Oc3ccc(C4(c5ccc(O[C@H]6C[C@H](Nc7ccc8c(c7)C(=O)N(C7CCC(=O)NC7=O)C8=O)C6)cc5)CCCC4)cc3)cn2)no1 (some centres unmarked)
4. CC(C)(c1ccc(OCc2ccnc(N3CC4(COC4)C3)n2)cc1)c1ccc(O[C@H]2CC[C@@H](Nc3ccc4c(c3)C(=O)N(C3CCC(=O)NC3=O)C4=O)CC2)cc1 (some centres unmarked)
5. CC(C)(c1ccc(Oc2ccc(-n3ccnn3)nn2)cc1)c1ccc(O[C@H]2C[C@H](Nc3ccc4c(c3)C(=O)N(C3CCC(=O)NC3=O)C4=O)C2)cc1 (some centres unmarked)
6. CC(C)(c1ccc(OCc2ccnc(N3CC4(COC4)C3)n2)cc1)c1ccc(OCC2(Nc3ccc4c(c3)C(=O)N(C3CCC(=O)NC3=O)C4=O)CC2)cc1 (centres unmarked)
7. CC(C)(c1ccc(Oc2nncs2)cc1)c1ccc(O[C@H]2C[C@H](Nc3ccc4c(c3)C(=O)N(C3CCC(=O)NC3=O)C4=O)C2)cc1 (some centres unmarked)

Result string:
["101 to 1000 nM", "101 to 1000 nM", "< 10 nM", "101 to 1000 nM", "11 to 100 nM", "11 to 100 nM", "< 10 nM"]

The reported measurements were obtained from patent US20250051347A1.
